Ref: ChEMBL document CHEMBL1201862

Test system: HOP-62
Test: NCI tumour cell line growth inhibition, 48 h
The source made the active and inactive calls. No stated cut-off is given here; in the data, active = GI50 up to about 1.1 µM and inactive = higher.
readout name: GI50

> print(dat)
                                    molecule       observed.result
 1                  O=C1CCCn2c(nc3ccccc32)N1   > 100 µM (inactive)
 2  O=S1(=O)OCCOS(=O)(=O)C1C1c2ccccc2-c2ccccc21    29.3 µM (inactive)
 3  O=c1ccn(C2(CO)C=C(CO)C(O)C2O)c(=O)[nH]1 (stereo unspecified)  > 25.7 µM (inactive)
 4         O=c1c2c(F)c(F)c(F)c(F)c2sc2nccn12    22.4 µM (inactive)
 5   CCC(C)NC1=NCC(C)S1 (stereo unspecified)   > 100 µM (inactive)
 6  CCCCCCCCCCCCCCCCCCOP(=O)([O-])OC1CC[N+](C)(C)CC1    7.53 µM (inactive)
 7  COc1cc2c(c(O)c1OC)-c1c(cc(OC)c(OC)c1OC)CC(C)C(C)C2 (stereo unspecified)   > 100 µM (inactive)
 8     COc1cc(CCNC2=CC(=O)c3ncccc3C2=O)ccc1O    2.39 µM (inactive)
 9  C=CCOC1=C(OC(C)=O)C(C2COC(C)(C)O2)OC1=O (stereo unspecified)   > 100 µM (inactive)
10  N#CCCN(CCNc1ccccc1)C(=O)Nc1ccc(NC(=O)N(CCC#N)CCNc2ccccc2)cc1    > 47 µM (inactive)
11  Clc1ccc(C2ON=C(c3ccccc3)N2C23CC4CC(CC(C4)C2)C3)cc1 (stereo unspecified)    > 10 µM (inactive)
